- Study System: T1, AP5-AA
- T1 chain: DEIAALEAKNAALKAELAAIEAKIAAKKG
- Procedure Text: two-hybrid library CCmax;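 note: natural log of median RNA to DNA barcode read ratio; higher means stronger binding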
- Measurement Setup: mean of both orientations
Threshold check on interaction score: at or above -1 gives condition met, strictly below gives condition not met.

# Binder, Cat
rows = [
    ("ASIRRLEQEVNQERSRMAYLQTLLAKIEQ [4H_BCR]", "condition not met"),
    ("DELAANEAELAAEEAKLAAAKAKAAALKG [AP4-AA]", "condition not met"),
    ("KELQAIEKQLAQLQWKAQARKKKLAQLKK [4H_APH]", "condition not met"),
    ("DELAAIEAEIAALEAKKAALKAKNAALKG [AP3-AA]", "condition not met"),
    ("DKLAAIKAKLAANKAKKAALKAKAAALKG [AP2-AA]", "condition not met"),
]

Entry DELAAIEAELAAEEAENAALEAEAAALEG [AP1-AA] : is its interaction score no less than -1?
condition not met

Try this binder next: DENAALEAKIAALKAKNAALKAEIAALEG [4H1401-AA]
condition met

Request: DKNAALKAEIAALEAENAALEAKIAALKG [4H3606-AA]
condition met
